The measurements presented in this section are drawn from paper PMC12155096.

# ASSAY_TARGET: human CYP2C19 (Homo sapiens)
# Sequence (P33261 whole entry): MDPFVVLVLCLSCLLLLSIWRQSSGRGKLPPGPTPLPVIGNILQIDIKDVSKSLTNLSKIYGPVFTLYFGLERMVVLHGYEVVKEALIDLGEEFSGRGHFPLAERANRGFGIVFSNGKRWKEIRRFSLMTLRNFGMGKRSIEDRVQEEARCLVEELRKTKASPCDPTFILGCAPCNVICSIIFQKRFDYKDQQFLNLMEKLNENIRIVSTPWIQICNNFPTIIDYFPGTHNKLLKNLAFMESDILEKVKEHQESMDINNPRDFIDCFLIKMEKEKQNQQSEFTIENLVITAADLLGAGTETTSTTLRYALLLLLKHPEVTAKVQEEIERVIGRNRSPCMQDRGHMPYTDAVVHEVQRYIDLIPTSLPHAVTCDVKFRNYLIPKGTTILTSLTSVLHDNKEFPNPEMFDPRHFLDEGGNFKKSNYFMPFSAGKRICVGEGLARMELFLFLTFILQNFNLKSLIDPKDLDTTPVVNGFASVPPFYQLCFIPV
# EXPERIMENT_NOTES: biochemical
RECORDED_ENDPOINT: IC50 (µM)
Reply with just the number (in µM).

{"columns": ["COMPOUND", "IC50, µM"],
 "data": [
  ["C=CC[C@]1(O)CC[C@H]2[C@@H]3CCC4=CC(=O)CCC4=C3C=C[C@@]21C", 8.15],
  ["O=c1cc(-c2ccccc2)oc2ccccc12", 23.2],
  ["N#C/C(=C1/SCC(c2ccccc2Cl)S1)n1ccnc1 (stereo not shown)", 0.12]
]}

Kindly review the next compound as well.
The compound listed as COc1ccc(S(=O)(=O)N2C(=O)[C@@](c3ccccc3OC)(N3C[C@H](O)C[C@H]3C(=O)N(C)C)c3cc(Cl)ccc32)c(OC)c1 has a reported IC50 of 27.6

###

AC50 for assorted compounds
# ASSAY_TARGET: human CYP2C19 (Homo sapiens)
# EXPERIMENT_NOTES: biochemical
# CONDITIONS: CYP2C19 AC50 (half-maximal activity concentration)
Where a name gives a salt, the structure may show the parent alone.
Number first, unit second.

Some entries whose results are on file:
{"columns": ["COMPOUND", "AC50"],
 "data": [
  ["Cc1cccc(C)c1NC(=O)CN1CCN(CCCC(c2ccc(F)cc2)c2ccc(F)cc2)CC1", "36.7 µM"],
  ["CC(=O)[C@H]1CC[C@H]2[C@@H]3CCC4=CC(=O)CC[C@]4(C)[C@H]3CC[C@]12C", "4.06 µM"],
  ["C#CC(C)N(C)C(=O)Nc1ccc(Cl)cc1 (centres unmarked)", "8.68 µM"],
  ["COC(=O)C(C)N(C(=O)Cc1ccccc1)c1c(C)cccc1C (centres unmarked)", "5.23 µM"],
  ["CN1CCC(=C2c3ccccc3C=Cc3ccccc32)CC1 [Cyproheptadine hydrochloride]", "21.5 µM"]
]}

AC50 value, target or system human CYP2C19 (Homo sapiens), for CC(=O)O[C@H]1CC[C@@]2(C)C(=CC[C@@H]3[C@@H]2CC[C@]2(C)C(=O)CC[C@@H]32)C1 [Dehydroepiandrosterone acetate] : 28.4 µM

For the compound C[C@H](CSC(=O)c1ccccc1)C(=O)N1C[C@@H](Sc2ccccc2)C[C@H]1C(=O)O , the measured AC50 on human CYP2C19 (Homo sapiens) was 1.71 µM

The compound COC(=O)c1cc(Oc2ccc(Cl)cc2Cl)ccc1[N+](=O)[O-] , tested on human CYP2C19 (Homo sapiens), showed AC50 of 2.45 µM

###

Catalogue of AC50 values
# ASSAY_TARGET: CYP3A4 (Homo sapiens, UniProt P08684)
# Sequence (P08684 whole entry): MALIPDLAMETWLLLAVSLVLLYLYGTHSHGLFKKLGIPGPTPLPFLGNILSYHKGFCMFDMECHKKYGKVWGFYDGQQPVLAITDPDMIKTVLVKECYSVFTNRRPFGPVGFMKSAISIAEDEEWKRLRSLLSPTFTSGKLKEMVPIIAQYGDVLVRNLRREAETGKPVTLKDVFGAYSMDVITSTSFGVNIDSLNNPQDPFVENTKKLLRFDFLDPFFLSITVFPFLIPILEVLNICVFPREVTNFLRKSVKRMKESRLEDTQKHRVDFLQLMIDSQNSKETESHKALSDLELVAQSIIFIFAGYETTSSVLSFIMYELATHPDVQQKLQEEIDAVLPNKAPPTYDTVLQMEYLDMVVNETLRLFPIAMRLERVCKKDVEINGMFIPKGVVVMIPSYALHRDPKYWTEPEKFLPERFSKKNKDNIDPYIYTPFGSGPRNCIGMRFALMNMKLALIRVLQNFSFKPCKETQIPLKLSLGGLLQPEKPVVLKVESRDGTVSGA
# EXPERIMENT_NOTES: biochemical
# CONDITIONS: CYP3A4 AC50 (half-maximal activity concentration)
Express the result in µM but write the number alone.

Below, 5 molecules whose answers are already recorded.
{"columns": ["MOLECULE", "ASSAY_TARGET", "READOUT_UNITS", "EXPERIMENTAL_RESULT"],
 "data": [
  ["CC(C)(C)c1cc([N+](=O)[O-])cc([N+](=O)[O-])c1O", "CYP3A4 (Homo sapiens, UniProt P08684)", "µM", 24.7],
  ["O=[N+]([O-])c1cccc2cccnc12", "CYP3A4 (Homo sapiens, UniProt P08684)", "µM", 38],
  ["O=C(C(=O)c1ccccc1)c1ccccc1", "CYP3A4 (Homo sapiens, UniProt P08684)", "µM", 35.4],
  ["N#CCCC(Br)(C#N)CBr (centres unmarked)", "CYP3A4 (Homo sapiens, UniProt P08684)", "µM", 9.92],
  ["CC(=O)OCC(=O)[C@@]12N=C(C)O[C@@H]1C[C@H]1[C@@H]3CCC4=CC(=O)C=C[C@]4(C)[C@H]3[C@@H](O)C[C@@]12C", "CYP3A4 (Homo sapiens, UniProt P08684)", "µM", 13.2]
]}

Bench note, CYP3A4 (Homo sapiens, UniProt P08684): entry COC(=O)CCCCCCCCC(=O)OC [Dimethyl decanedioate] , its AC50 = 38.8

So the reported AC50 for CC(=O)[C@H]1[C@H](C#N)C[C@H]2[C@@H]3CC=C4C[C@@H](O)CC[C@]4(C)[C@H]3CC[C@@]21C , on CYP3A4 (Homo sapiens, UniProt P08684), turned out to be 2.22

Summary line: CCOC(=O)c1nc(C(Cl)(Cl)Cl)n(-c2ccc(Cl)cc2Cl)n1 , CYP3A4 (Homo sapiens, UniProt P08684), reported AC50 = 3.26

###

# ASSAY_TARGET: human CYP1A2 (Homo sapiens)
# Sequence (P05177 1-516): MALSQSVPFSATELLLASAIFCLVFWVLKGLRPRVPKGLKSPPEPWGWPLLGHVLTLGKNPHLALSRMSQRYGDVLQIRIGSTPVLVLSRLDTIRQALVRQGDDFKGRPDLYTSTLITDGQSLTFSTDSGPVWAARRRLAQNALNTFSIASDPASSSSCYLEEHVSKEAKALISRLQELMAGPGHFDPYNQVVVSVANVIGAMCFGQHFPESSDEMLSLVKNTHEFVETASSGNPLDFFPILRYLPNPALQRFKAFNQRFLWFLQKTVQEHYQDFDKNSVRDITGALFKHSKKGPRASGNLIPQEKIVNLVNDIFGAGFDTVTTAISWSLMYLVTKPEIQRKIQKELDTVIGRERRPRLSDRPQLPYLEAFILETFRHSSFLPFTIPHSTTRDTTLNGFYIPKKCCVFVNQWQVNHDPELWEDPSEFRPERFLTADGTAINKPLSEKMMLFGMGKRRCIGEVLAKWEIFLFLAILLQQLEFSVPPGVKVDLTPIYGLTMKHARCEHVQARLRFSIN
# EXPERIMENT_NOTES: biochemical
# CONDITIONS: CYP1A2 IC50 (half-maximal inhibitory concentration)
// IC50 lookup, one value per entry
Kindly provide the numeric value in µM only, without the unit symbol.

{"columns": ["MOLECULE", "IC50 / µM"],
 "data": [
  ["C[C@]12Cc3c[nH]nc3C[C@@H]1CC[C@@H]1[C@@H]2CC[C@@]2(C)[C@H]1CC[C@]2(C)O", 21.5],
  ["COc1c2ccoc2cc2oc(=O)ccc12", 0.28],
  ["Cc1cc(O)c(C(C)(C)C)cc1Sc1cc(C(C)(C)C)c(O)cc1C", 40],
  ["CCCOC(=O)c1cncn1C(C)c1ccccc1 (centres unmarked) [Propoxate]", 18.9]
]}

IC50 recorded for this molecule, Brc1c2ccccc2cc2ccccc12 , is 0.51

Recorded result, O=C1c2ccccc2Cc2ccccc21 , IC50: 0.44

Notebook: OC(c1ccc(Cl)cc1)(c1cncnc1)c1ccccc1Cl (centres unmarked) , IC50 read as 71.4

// field: IC50; key: CCOP(=S)(OCC)SCn1nnc2ccccc2c1=O ; value = 28.6

Reported IC50 for COP(=S)(OC)Oc1ccc(S(=O)(=O)N(C)C)cc1 was 35.7

###

# ASSAY_TARGET: UniProt P33261
# EXPERIMENT_NOTES: biochemical
# CONDITIONS: CYP2C19 IC50 (half-maximal inhibitory concentration)
pIC50: −log10 of the molar value.
Mark 1 for reported pIC50 of 6 or greater; mark 0 for anything smaller.

Consider the following illustrative entries.
{"columns": ["COMPOUND", "CLASSIFICATION"],
 "data": [
  ["COC(=O)N(OC)c1ccccc1COc1ccn(-c2ccc(Cl)cc2)n1", 1],
  ["Brc1ccc(Oc2ccc(Br)cc2Br)c(Br)c1", 1],
  ["Clc1ccc(COC(Cn2ccnc2)c2ccc(Cl)cc2Cl)cc1 (centres unmarked) [Econazole nitrate]", 1],
  ["O=C1c2ccccc2C(=O)C1C(=O)C(c1ccccc1)c1ccccc1", 0],
  ["c1ccc(-c2ccc(C(c3ccccc3)n3ccnc3)cc2)cc1 (centres unmarked)", 1],
  ["O=S(=O)(c1ccc(Cl)cc1)c1ccc(Cl)cc1", 1]
]}

Ask | Entry CCCCC(=O)O[C@]1(C(=O)CO)[C@@H](C)C[C@H]2[C@@H]3CCC4=CC(=O)C=C[C@]4(C)[C@@]3(F)[C@@H](O)C[C@@]21C [Betamethasone valerate] : is its pIC50 no less than 6?
Reply | 0

Ask | Is pIC50 at least 6? Consider CC(C)C1CCC(Cc2ccc(Cl)cc2)C1(O)Cn1cncn1 (centres unmarked)
Reply | 1

###

# ASSAY_TARGET: Photinus pyralis (firefly) luciferase (Photinus pyralis, UniProt P08659)
# Sequence (P08659 whole entry): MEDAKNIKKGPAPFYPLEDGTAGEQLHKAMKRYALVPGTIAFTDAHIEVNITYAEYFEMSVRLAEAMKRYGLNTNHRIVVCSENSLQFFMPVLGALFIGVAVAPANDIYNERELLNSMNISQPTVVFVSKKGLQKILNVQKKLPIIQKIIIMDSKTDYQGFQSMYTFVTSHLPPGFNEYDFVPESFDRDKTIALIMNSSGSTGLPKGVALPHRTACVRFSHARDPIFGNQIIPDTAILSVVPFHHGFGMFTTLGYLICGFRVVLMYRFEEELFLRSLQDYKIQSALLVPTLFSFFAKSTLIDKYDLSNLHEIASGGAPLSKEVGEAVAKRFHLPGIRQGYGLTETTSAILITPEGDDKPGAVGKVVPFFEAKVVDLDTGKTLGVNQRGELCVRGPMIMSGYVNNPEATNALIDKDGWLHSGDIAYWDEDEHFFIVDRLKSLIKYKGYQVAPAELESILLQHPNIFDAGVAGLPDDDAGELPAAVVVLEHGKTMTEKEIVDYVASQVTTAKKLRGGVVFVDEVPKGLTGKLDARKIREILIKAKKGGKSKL
# EXPERIMENT_NOTES: biochemical
# Type: biochemical
RECORDED_ENDPOINT: pIC50
// scale note: pIC50 = -log10(conc_M); give the bare number

A selection of reference data follows.
{"columns": ["CPD_SMILES", "pIC50"],
 "data": [
  ["c1ccc2c(c1)-c1cccc3cccc-2c13", 4.21],
  ["Cc1c2ccccc2c(C)c2c1ccc1ccccc12", 4.49],
  ["C#Cc1ccc(-c2ccccc2F)cc1", 4.59]
]}

The compound listed as c1ccc2c(c1)-c1ccc3ccc4cccc5cc-2c1c3c45 shows pIC50 equal to 4.89

Notebook: Nc1ccc2c3c(cccc13)-c1ccccc1-2 , pIC50 read as 4.56

What the record says about Brc1ccc(Oc2ccc(Br)cc2Br)c(Br)c1 : pIC50 is 4.36

The recorded pIC50 for entry c1ccc2c(c1)Nc1ccccc1S2 equals 4.24

For record Fc1ccc(Oc2ccnc3cc(Cl)cc(Cl)c23)cc1 the listed pIC50 is 4.23

Noted for CCN(CC)C(=O)SCc1ccc(Cl)cc1 : its pIC50 reads 4.41

Just so you know, measured pIC50 for OCc1c2ccccc2cc2ccccc12 came out at 4.16
